System: Alternaria alternata
assay details: Antifungal activity against Alternaria alternata by MTT assay
Format: functional
Recorded MIC by entry
Give your result in µg/mL as a bare value.

Some compounds with known MIC results, for comparison:
{"compound": "Oc1ccc([C@@H]2c3c(O)cc(O)cc3[C@@H]3c4c(cc(O)c5c4[C@@H]2[C@@H](c2ccc(O)cc2)[C@@H]5c2cc(O)cc(O)c2)O[C@H]3c2ccc(O)cc2)cc1", "unit abbrev": "µg/mL", "observed result": 1.56}
{"compound": "CC(=O)N1CCN(c2ccc(OCC3COC(Cn4ccnc4)(c4ccc(Cl)cc4Cl)O3)cc2)CC1 (stereo unspecified)", "unit abbrev": "µg/mL", "observed result": 1.04}

Next item in the queue.
Item: O=C1C=C2O[C@@H](c3ccc(O)cc3)[C@H]3C2=C(C1=O)[C@H]1c2c(cc(O)cc2[C@@H]2c4c(cc(O)cc43)O[C@H]2c2ccc(O)cc2)O[C@@H]1c1ccc(O)cc1 | MIC: 22.5

###

Measured MIC, listed per entry.
System: Colletotrichum lagenaria
assay details: Antifungal activity against Colletotrichum lagenarium by MTT assay
Assay type: functional
Provide only the numeric value, understood in µg/mL.

{"compound": "CC(=O)N1CCN(c2ccc(OCC3COC(Cn4ccnc4)(c4ccc(Cl)cc4Cl)O3)cc2)CC1 (stereo not drawn)", "observed result": 0.97}

Here is the next item to consider.
# MIC of Oc1ccc([C@H]2Oc3cc(O)cc4c3[C@@H]2c2cc(O)cc3c2[C@@H](c2cc(O)cc5c2[C@@H]4[C@H](c2ccc(O)cc2)O5)[C@H](c2ccc(O)cc2)O3)cc1 = 12.5

###

Listed molecules paired with reported log10(MIC)
System: Pyricularia oryzae
assay details: Antifungal activity against Pyricularia oryzae by MTT assay
Type: functional
// stored as log10 of MIC expressed in µg/mL

# annotated cases, reported log10(MIC) shown
{"molecule": "Oc1ccc([C@H]2Oc3cc(O)cc4c3[C@@H]2c2cc(O)cc3c2[C@@H](c2cc(O)cc5c2[C@@H]4[C@H](c2ccc(O)cc2)O5)[C@H](c2ccc(O)cc2)O3)cc1", "endpoint name": "log10(MIC)", "observed result": 0.80}
{"molecule": "CC(=O)N1CCN(c2ccc(OCC3COC(Cn4ccnc4)(c4ccc(Cl)cc4Cl)O3)cc2)CC1 (configuration not stated)", "endpoint name": "log10(MIC)", "observed result": -1.52}

The reported value for Oc1ccc([C@@H]2c3c(O)cc(O)cc3[C@@H]3c4c(cc(O)c5c4[C@@H]2[C@@H](c2ccc(O)cc2)[C@@H]5c2cc(O)cc(O)c2)O[C@H]3c2ccc(O)cc2)cc1 in terms of log10(MIC) is 1.06

// log10(MIC) value for Oc1ccc([C@@H]2c3cc(O)ccc3[C@@H]3c4c(O)cc(O)cc4[C@@H]2c2c(O)cc(O)c4c2[C@@H]3[C@@H](c2ccc(O)cc2)[C@@H]4c2cc(O)cc(O)c2)cc1 : -0.11

According to the records, this molecule O=C1C=C2O[C@@H](c3ccc(O)cc3)[C@H]3C2=C(C1=O)[C@H]1c2c(cc(O)cc2[C@@H]2c4c(cc(O)cc43)O[C@H]2c2ccc(O)cc2)O[C@@H]1c1ccc(O)cc1 displays log10(MIC) of -1.00

Reported log10(MIC) ( O=C1c2cc(O)cc3oc(-c4ccc(O)cc4)c(c23)-c2cc(O)cc(O)c2C1c1ccc(O)cc1 (configuration not stated) ) = 1.44

So for Oc1ccc([C@@H]2c3c(O)cc(O)cc3[C@@H]3c4c(cc(O)c5c4[C@H]2[C@H](c2ccc(O)cc2)[C@H]5c2cc(O)cc(O)c2)O[C@H]3c2ccc(O)cc2)cc1 , the logged log10(MIC) turned out to be 0.49
